# Kd per entry
MEASURED_TARGET: T1, human FGFR3 (human, UniProt P22607 23-375)
T1 construct: also called hFGFR3
T1 sequence: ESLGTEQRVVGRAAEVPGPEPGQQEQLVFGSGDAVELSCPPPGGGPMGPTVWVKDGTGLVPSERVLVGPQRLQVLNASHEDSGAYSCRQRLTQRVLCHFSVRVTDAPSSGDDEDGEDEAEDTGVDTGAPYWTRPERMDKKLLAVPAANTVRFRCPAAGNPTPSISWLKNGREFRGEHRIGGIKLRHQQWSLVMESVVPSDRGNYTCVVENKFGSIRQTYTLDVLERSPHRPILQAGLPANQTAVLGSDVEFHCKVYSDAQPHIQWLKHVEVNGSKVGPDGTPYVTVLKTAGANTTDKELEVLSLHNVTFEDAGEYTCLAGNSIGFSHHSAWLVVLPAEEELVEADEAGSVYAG
MEASUREMENT_PROTOCOL: affinity table; method not restated (Biacore SPR per Example 1)
OBSERVABLE: Kd (nM)

>>> measured_value("KC18_Hu34 (antibody, human IgG1, kappa, V domains shown) VH: QVQLVQSGAEVVKPGASVKLSCKASGDTFTDFEIHWVKQAPGQGLEWIGDIDPETGGTAYNQKFQGRATLTADRSSSTAYMELSRLRSDDTAVYYCTRTYDGYPYAMDYWGQGTTVTVSS VL: DIVMTQSPLSLAVTVGEKVSISCRSSQSLLYSNNQKNYLAWYQQKPGQSPKLLIYWGSTRESGVPDRFSGSGSGTDFTLTISRVEAEDVGVYYCQQYYSYRTFGGGTKLEIKR")
6.85
>>> measured_value("KC18 (antibody, V domains shown, Mouse hybridoma antibody; also called parental KC18 antibody) VH: QVQLQQSGAELVRPGASVTLSCKASGDTFTDFEIHWVKQTPVHGLEWIGDIDPETGGTAYNQKFRGRAMLTADRSSSTAYMELRSLTSEDSAVYYCTRTYDGYPYAMDYWGQGTSVTVSS VL: DIVMSQSPSSLAVSVGEKVTMSCKSSQSLLYSNNQKNYLAWYQQKPGQSPKLLIYWASTRESGVPDRFTGSGSGTDFTLTISSVKAEDLAVYYCQQYYSYRTFGGGTKLEIK")
2.73
>>> measured_value("KC18_Hu27 (antibody, human IgG1, kappa, V domains shown) VH: QVQLVQSGAEVVKPGATVKLSCKASGDTFTDFEIHWVKQAPGKGLEWIGDIDPETGGTAYNEKFQGRATLTADRSTSTAYMELSSLRSEDTAVYYCTRTYDGYPYAMDYWGQGTTVTVSS VL: DIVMTQSPSSLAVSLGERVTMNCKSSQSLLYSNNQKNYLAWYQQKPGQSPKLLIYWASTRESGVPDRFSGSGSGTDFTLTISSVQAEDVAVYYCQQYYSYRTFGGGTKLEIKR")
3.9
>>> measured_value("KC18_Hu28 (antibody, human IgG1, kappa, V domains shown) VH: QVQLVQSGAEVVKPGASVKLSCKASGDTFTDFEIHWVKQAPGQGLEWIGDIDPETGGTAYNQKFQGRATLTADRSSSTAYMELSRLRSDDTAVYYCTRTYDGYPYAMDYWGQGTTVTVSS VL: DIVMTQSPSSLAVSLGERVTMNCKSSQSLLYSNNQKNYLAWYQQKPGQSPKLLIYWASTRESGVPDRFSGSGSGTDFTLTISSVQAEDVAVYYCQQYYSYRTFGGGTKLEIKR")
4.46

Cited source: patent US20220056142A1
